# ASSAY EXPLANATION: Selectivity index, ratio of IC50 for cytotoxicity against HEK293 cells to IC50 for antimalarial activity against chloroquine sensitive Plasmodium falciparum 3D7
# Assay type: toxicity, cell-based
# ASSAY CONTEXT: human, read-out: Ratio IC50
Below is a list of entries, each paired with its recorded selectivity ratio value.
METRIC: selectivity ratio

In [3]: df
Out[3]:
                               entry_smiles             metric  assay_result
0  COC(=O)c1cc2c(c(OC)c1OC)[C@H](C)C[C@@H](OC(=O)Nc1ccc(OC)cc1)[C@H]2[C@@H](C)CCC=C(C)C  selectivity ratio           8.6
1  COc1ccc(C[C@H](N)C(=O)N[C@H]2[C@@H](O)[C@H](n3cnc4c(N(C)C)ncnc43)O[C@@H]2CO)cc1  selectivity ratio          15.5
2  COC(=O)c1cc2c(c(OC)c1OC)[C@H](C)C[C@@H](OC(=O)Nc1ccc([N+](=O)[O-])cc1)[C@H]2[C@@H](C)CCC=C(C)C  selectivity ratio             5

Hey, just so you know, these numbers are from ChEMBL document CHEMBL5252581.
